Catalogue of viability at 0.05 µM readings, one per entry.
Assay Explanation: in vitro
Condition Summary: human
Quantity Measured: viability at 0.05 µM (%)

O=C1CCc2ccc(OCCCCN3CCN(c4cccc(Cl)c4Cl)CC3)cc2N1 | 124
CCOC(=O)C1=C(C)NC(C)=C(C(=O)OCC)C1c1ccccc1/C=C/C(=O)OC(C)(C)C | 138
Nc1ncnc2c([C@@H]3N[C@H](CO)[C@@H](O)[C@H]3O)c[nH]c12 | 99
O=c1cnn([C@@H]2O[C@H](CO)[C@@H](O)[C@H]2O)c(=S)[nH]1 | 104

* * *

viability at 0.5 µM reference
Assay Explanation: in vitro
Condition Summary: human
Quantity Measured: viability at 0.5 µM (%)

COc1cc2ncnc(Nc3ccc(F)c(Cl)c3)c2cc1OCCCN1CCOCC1 | 121
[N-]=[N+]=Nc1nc2c(N)ncnc2n1[C@@H]1O[C@H](CO)[C@@H](O)[C@H]1O | 87
O=C(NCCCNc1nc(Nc2cccc(NC(=O)N3CCCC3)c2)ncc1I)c1cccs1 | 105
COc1cc2ncnc(Nc3cccc(Cl)c3)c2cc1OC | 101
